The values you see were collected from patent US8927559B2.

target: CRTH2 receptor (hCRTH2) (Homo sapiens); construct: expressed in transfected cells; host or cells: HEK cells (HEK-hCRTH2 cell line), membranes; test: Radioligand binding assay ([3H]PGD2 competition, membranes of HEK-hCRTH2 cell line); conditions: 3.0 nM [3H]PGD2, HEK-hCRTH2 membranes, 60 min, room temperature; read-out: Ki
Sequence (Q9Y5Y4 whole entry): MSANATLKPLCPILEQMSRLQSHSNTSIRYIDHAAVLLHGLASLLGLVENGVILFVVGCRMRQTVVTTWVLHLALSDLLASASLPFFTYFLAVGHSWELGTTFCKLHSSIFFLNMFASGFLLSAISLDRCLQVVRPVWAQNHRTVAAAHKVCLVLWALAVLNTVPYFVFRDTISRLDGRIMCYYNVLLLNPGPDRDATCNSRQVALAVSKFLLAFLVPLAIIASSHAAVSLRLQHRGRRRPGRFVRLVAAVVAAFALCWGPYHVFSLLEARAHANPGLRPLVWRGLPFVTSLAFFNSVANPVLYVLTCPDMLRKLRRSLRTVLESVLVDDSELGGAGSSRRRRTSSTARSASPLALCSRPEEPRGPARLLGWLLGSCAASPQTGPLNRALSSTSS
pKi: −log10 of the molar value.
quantity: pKi

Sample records with pKi:
| molecule | quantity | result |
| --- | --- | --- |
| O=C(O)CCCCc1nc2cc(-c3cc(-c4ccc(F)cc4)on3)ccc2c(=O)n1-c1ccc(F)cc1 | pKi | ≥ 8.00 |
| CC[C@@H](c1ccc(F)cc1)c1cc(-c2ccc3c(=O)n(-c4ccc(F)cc4)c(CCCCC(=O)O)nc3c2)no1 [Example 43D] | pKi | ≥ 8.00 |

## Input Dear colleague, I am looking for the recorded pKi of the following molecule: CC(c1ccc(F)cc1)c1nc(-c2ccc3c(=O)n(-c4ccc(F)cc4)c(CCCCC(=O)O)nc3c2)no1 (centres unmarked)
## Output 7.30 to 8.00

## Input Field entry: `C[C@@]1(C(=O)N[C@H]2c3ccccc3C[C@H]2O)CC(c2ccc3c(=O)n(-c4ccc(F)cc4)c(CCCCC(=O)O)nc3c2)=NO1`
## Output ≥ 8.00

## Input What do you get for CC1(C(=O)Nc2cc(F)ccc2O)CC(c2ccc3c(=O)n(-c4ccc(F)cc4)c(CCCCC(=O)O)nc3c2)=NO1 (centres unmarked) ?
## Output ≥ 8.00

## Input Likewise for `O=C(O)CCCCc1nc2cc(-c3c[nH]nn3)ccc2c(=O)n1-c1ccc(F)cc1` ?
## Output 7.30 to 8.00

## Input # iterate: O=C(O)CCCCc1nc2cc(C3=NOC(c4nc5ccccc5o4)C3)ccc2c(=O)n1-c1ccc(F)cc1 (single isomer, unassigned) [Example 28E]
## Output ≥ 8.00
